# experimental_details: Hemolytic activity in human type RBC after 1 hr
# Assay type: ADME, cell-based, Erythrocyte
# cond: red blood cells (erythrocytes), read-out: LC50
Non-standard residues stand in square brackets, D forms with d. Residues, ends and D or L forms follow the SMILES beside them. ξ: configuration not given here. ξNle = CCCCC(N)C(=O)O
As shown below, each of these compounds has a reported HC50 at 1 h value.

| compound | scale_unit | relation_sign | HC50 at 1 h |
| --- | --- | --- | --- |
| CCCCC(NC(=O)[C@H](CC(C)C)NC(=O)[C@H](CO)NC(=O)[C@H](CO)NC(=O)C(CCCC)NC(=O)[C@@H](NC(=O)CN)[C@@H](C)CC)C(=O)N[C@@H](CCCCN)C(=O)N[C@@H](CCCCN)C(=O)N[C@@H](CC(C)C)C(=O)N[C@@H](CCCCN)C(=O)N[C@@H](CCCCN)C(=O)N[C@H](C(=O)N[C@H](C(=O)N[C@@H](C)C(N)=O)[C@@H](C)CC)[C@@H](C)CC (some centres not stated) (H-GI[ξNle]SSL[ξNle]KKLKKIIA-NH2) | µM | = | 373 |
| CC[C@@H](C)[C@@H](NC(=O)CN)C(=O)N[C@H](CCSC)C(=O)N[C@H](CO)C(=O)N[C@H](CO)C(=O)N[C@H](CC(C)C)C(=O)N[C@H](CCSC)C(=O)N[C@H](CCCCN)C(=O)N[C@H](CCCCN)C(=O)N[C@H](CC(C)C)C(=O)N[C@H](CCCCN)C(=O)N[C@H](CCCCN)C(=O)N[C@@H](C(=O)N[C@@H](C(=O)N[C@H](C)C(=O)N[C@H](CCCCN)C(N)=O)[C@H](C)CC)[C@H](C)CC (H-G[dI][dM][dS][dS][dL][dM][dK][dK][dL][dK][dK][dI][dI][dA][dK]-NH2) | µM | > | 400 |

---

# Tested on: Staphylococcus epidermidis
# experimental_details: Antimicrobial activity against Staphylococcus epidermidis assessed as reduction in bacterial growth after 20 hrs by broth microdilution assay
Kindly apply the following: true if MIC is less than 5 µM, false in every other case.

| substance | category_label |
| --- | --- |
| H-GIMISLMKKLAAHIAK-NH2 | false |
| H-GILKSLLKKLKKIIAK-NH2 | true |
| H-GILSSLLKKWKKIIAK-NH2 | true |
| H-GILSSLWKKLKKWIAK-NH2 | true |
| H-GILSSLWKKLKKIIAK-NH2 | true |
| H-KILSSLLKKLKKIIAK-NH2 | true |
| H-GILSKLLKKLKKIIAK-NH2 | true |
| H-GIMSSLMKKLKKIIAK-NH2 | true |
| H-GIMSSLMKKLAKHIAK-NH2 | false |
| H-GIMSSLMKKLAKIIKK-NH2 | true |
| H-GILSSLWKKPKKIIAK-NH2 | false |
| H-GIMSSLMKKLKKIIKK-NH2 | true |
| H-GIWSSLLKKLKKIIAK-NH2 | true |
| H-GIMSSLMKKLAAHIKK-NH2 | false |
| H-GILSSLLKKLKKWIAK-NH2 | true |
| H-GKLSSLWKKLKKIIAK-NH2 | true |
| H-GIMSSLMKKLAAHIAK-NH2 | false |
| H-GILSSWLKKLKKIIAK-NH2 | true |
| H-GIMSSLMKKLKKHIAK-NH2 | false |
| H-GILSSLLKKLKKIIAK-NH2 | true |
| H-GIMSSLMKKLKAHIAK-NH2 | false |
